- systemUnderTest: hNPY2R (Homo sapiens)
- Construct: expressed in transfected cells; host or cells: HEK-293 cells carrying a CRE-luciferase reporter gene
- Sequence (P49146 1-381): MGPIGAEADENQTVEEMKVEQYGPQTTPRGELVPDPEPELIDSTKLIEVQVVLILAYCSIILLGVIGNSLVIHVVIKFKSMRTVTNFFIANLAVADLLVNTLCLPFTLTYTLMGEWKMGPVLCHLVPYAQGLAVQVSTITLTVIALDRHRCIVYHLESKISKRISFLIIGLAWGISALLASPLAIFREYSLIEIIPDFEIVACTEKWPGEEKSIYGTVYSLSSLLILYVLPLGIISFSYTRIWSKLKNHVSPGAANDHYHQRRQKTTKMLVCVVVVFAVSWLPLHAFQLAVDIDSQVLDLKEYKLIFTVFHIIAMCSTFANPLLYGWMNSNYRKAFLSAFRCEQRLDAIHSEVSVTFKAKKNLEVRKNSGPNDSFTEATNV
- methodSummary: hNPY2R CreLuc reporter gene assay in 0.5% and 100% plasma
- Type: cell-based
- particulars: CreLuc reporter gene assay, 0.5% human plasma; read-out: hNPY2R 0.5% hP
- Experimental: Example 1: hGLPR/hGIPR/hNPY2R CreLuc Assay in 0.5% and 100% Plasma CHO and HEK-293 recombinant cell lines express a luciferase reporter gene under control of the cAMP responsive element (CRE). […] Following incubation, assay plates are equilibrated to room temperature, followed by addition of 25 μl of Bright-GIo™ Luciferase reagent, incubation at room temperature for 10 minutes and analysis of luminescence (Envision Reader). […]
Starred links: 1 amine or outer side, 2 acyl side, 3 side chain; linkers in the order of their positions; H or OH if unused. Non-standard residues stand in square brackets, D forms with d. Groups on a side chain read outwards from the residue. *: point of attachment. C20 diacid = O=C(O)CCCCCCCCCCCCCCCCCCC(=O)*; C18 diacid = O=C(O)CCCCCCCCCCCCCCCCC(=O)*; γGlu = O=C(O)[C@H](CCC(=O)[*:2])N[*:1]; εLys = N[C@@H](CCCCN[*:1])C(=O)[*:2]; Aib = CC(C)(N)C(=O)O
propertyLabel: pEC50
Value format note: pEC50 is -log10 of concentration (mol/L); just state the number.

{"columns": ["substance", "systemUnderTest", "pEC50"],
 "data": [
  ["H-Y[Aib]EGTFTSDYSI[Aib]LEKQAQ[Aib]EFVQWLIK([γGlu-γGlu-γGlu-γGlu-C18 diacid])GGPSEGASLRHYYNWLTRQRY-NH2 [Compound 202]", "hNPY2R (Homo sapiens)", 7.89]
]}

Data request: Report value: pEC50, system: hNPY2R (Homo sapiens), substance: H-Y[Aib]EGTFTSDYSI[Aib]LEKQAQ[Aib]AFIEWLIK([γGlu-γGlu-γGlu-γGlu-C20 diacid])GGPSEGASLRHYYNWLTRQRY-NH2 [Compound 283]
Data returned: 7.83

Data request: Answer briefly: pEC50 recorded on hNPY2R (Homo sapiens) for H-Y[Aib]EGTFTSDYSI[Aib]LEKQAQ[Aib]AFVQWLIK([εLys-γGlu-γGlu-γGlu-γGlu-γGlu-C18 diacid])GGPSEPASLRHYYNWLTRQRY-NH2 [Compound 148]
Data returned: 7.96
